Target: hSTING-AQ (Homo sapiens, UniProt Q86WV6, G230A/R293Q)
Construct: expressed in transfected cells
Sequence (Q86WV6 whole entry G230A/H232R/R293Q): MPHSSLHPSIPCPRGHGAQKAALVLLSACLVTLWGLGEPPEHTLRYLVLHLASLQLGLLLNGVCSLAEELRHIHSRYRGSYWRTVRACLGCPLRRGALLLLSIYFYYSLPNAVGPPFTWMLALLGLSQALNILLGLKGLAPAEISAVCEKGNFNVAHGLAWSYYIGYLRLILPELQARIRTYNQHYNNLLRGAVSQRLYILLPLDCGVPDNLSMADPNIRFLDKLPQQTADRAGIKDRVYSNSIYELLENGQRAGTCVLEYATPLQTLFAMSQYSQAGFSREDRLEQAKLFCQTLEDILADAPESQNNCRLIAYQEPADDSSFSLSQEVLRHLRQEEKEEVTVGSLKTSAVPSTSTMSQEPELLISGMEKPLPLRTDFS
Test: Cellular Functional Assay I: ISRE-SEAP reporter, hSTING-AQ allele
Format: cell-based
Each item that follows carries a reported EC50.
observable: EC50

[
  {
    "compoundSmiles": "CCn1nc(C)cc1C(=O)Nc1nc2cc(C(N)=O)cnc2n1C/C=C/Cn1c(NC(=O)c2cc(C)nn2CC)nc2cc(C(N)=O)cc(OCCCN(C)C)c21",
    "observable": "EC50",
    "obsValue": "1 to 500 nM"
  },
  {
    "compoundSmiles": "CCn1nc(C)cc1C(=O)Nc1nc2cc(C(N)=O)cnc2n1C/C=C/CNC(=O)OC(C)(C)C",
    "observable": "EC50",
    "obsValue": "> 500 nM"
  },
  {
    "compoundSmiles": "CCn1nc(C)cc1C(=O)Nc1nc2cc(C(N)=O)cnc2n1C/C=C/Cn1c(NC(=O)c2cc(C)nn2CC)nc2cc(C(N)=O)cc(OCCCN(C)CCOC)c21",
    "observable": "EC50",
    "obsValue": "1 to 500 nM"
  }
]
